Assay: chemical genetic growth profiling, strain panel (AID 1159580);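 further: tested at 20 µM; growth read once vehicle control cultures reached saturation at 30 °C; 1 = growth at the plate median or of vehicle wells; lower values mean less growth of the strain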
Settings: S. cerevisiae deletion strains, growth OD, locus YER155C, strain BEM2 (second series), hits give low values
The whole screen tested about 5,500 compounds, of which about 2,000 (36%) were called active. Inconclusive results (about 18%) are left out. Some of the results follow.
// values below are reported normalized growth
// return a plain number; no unit text

Answered cases to consult:
compound	result
CC1(C)CC[C@]2(C(=O)O)CC[C@]3(C)C(=CCC4[C@@]5(C)CC[C@H](O)[C@@](C)(CO)C5CC[C@]43C)C2C1 (some centres undefined)	1.03
CC1OC(=O)C(C(C)C)NC(=O)C(C(C)C)OC(=O)C(C(C)C)NC(=O)C(C)OC(=O)C(C(C)C)NC(=O)C(C(C)C)OC(=O)C(C(C)C)NC(=O)C(C)OC(=O)C(C(C)C)NC(=O)C(C(C)C)OC(=O)C(C(C)C)NC1=O (centres undefined)	0.6
COC(=O)C[C@H]1C(C)(C)C(=O)[C@@H]2CC3C4=CC(=O)O[C@@H](c5ccoc5)[C@]4(C)CCC3[C@@]1(C)C2=O (some centres undefined)	0.978

Enquiry: Need normalized growth of N#CC(O[C@@H]1O[C@H](CO[C@@H]2O[C@H](CO)[C@@H](O)[C@H](O)[C@H]2O)[C@@H](O)[C@H](O)[C@H]1O)c1ccccc1 (some centres undefined) , thanks.
Return: 0.966

* * *

Test: chemical genetic growth profiling, strain panel (AID 1159580)
Settings: S. cerevisiae deletion strains, growth OD, locus YOR069W, strain VPS5, hits give low values
The whole screen tested about 5,500 compounds, of which about 2,000 (36%) were called active. About 18% were inconclusive and are not listed. Some of the results follow.
endpoint: normalized growth
// return a plain number; no unit text

Answered cases to consult:
compound	normalized growth
C[C@@H]1OC(O[C@H]2[C@H](O)[C@@H](O)[C@H](OC[C@H]3O[C@@H](OC(=O)[C@]45CCC(C)(C)CC4C4=CCC6[C@@]7(C)CC[C@H](OC8OC[C@H](O)[C@H](O)[C@H]8OC8O[C@@H](C)[C@H](O)[C@@H](O)[C@H]8O)[C@@](C)(CO)C7CC[C@@]6(C)[C@]4(C)CC5)[C@H](O)[C@@H](O)[C@@H]3O)O[C@@H]2CO)[C@H](O)[C@H](O)[C@H]1O (stereo partly specified)	0.991
Cc1cn([C@H]2C[C@H](N=[N+]=[N-])[C@@H](CO)O2)c(=O)[nH]c1=O	1.01
CC(=O)OC1CC(OC(C)=O)C2(C)C(CC(OC(C)=O)C3(C)C4=CC(=O)OC(=O)C4(C)CCC32)C1(C)C (stereo unspecified)	1.01
CC(=O)O[C@H]1CC[C@@]2(C)C(CC[C@]3(C)C2C(=O)C=C2C4[C@@H](C)[C@H](C)CC[C@]4(C(=O)O)CC[C@]23C)C1(C)C (stereo partly specified)	1.01
N=C(N)c1ccc(OCCCCCOc2ccc(C(=N)N)cc2)cc1	0.964

We next turn to a different compound, shown below.
Enquiry: Need normalized growth of CC(=O)OC1CC[C@@]2(C)C(CC[C@]3(C)C2CCC2C4CC(C)(C)CCC4(C(=O)O)CC[C@]23C)C1(C)C (stereo partly specified) , thanks.
Return: 1

* * *

Assay: chemical genetic growth profiling, strain panel (AID 1159580)
Conditions: S. cerevisiae deletion strains, growth OD, locus YOR001W, strain rrp6
In all, about 5,500 compounds went through this assay and about 2,000 (36%) were called active. Another 18% or so got no clear call; they are omitted. Rule as the data show it: active = normalized growth mostly below about 0.91 (no sharp cut-off); inconclusive = no clear call, values can overlap the other calls; inactive = mostly above about 0.92. The list shows a part of the results.
Valid outcomes are listed here; reply with one: active, inactive

Enquiry: Could you kindly confirm the outcome this assay logged for COC(=O)Nc1nc2ccc(S(=O)c3ccccc3)cc2[nH]1 (centres undefined) ?
Return: inactive

* * *

Test: chemical genetic growth profiling, strain panel (AID 1159580)
Conditions: S. cerevisiae deletion strains, growth OD, locus YCL029C, strain bik1, hits give low values
The whole screen tested about 5,500 compounds, of which about 2,000 (36%) were called active. Roughly 18% stayed inconclusive and do not appear here. This is one part of the list.
Labelling field: enter Satisfied if recorded normalized growth is less than 1. Enter Not satisfied if it equals or exceeds that cut-off.

Consider the worked cases shown below.
compound	answer-label
Nc1ccc(S(=O)(=O)c2ccc(N)cc2)cc1	Not satisfied
CC(C)(Sc1cc(C(C)(C)C)c(O)c(C(C)(C)C)c1)Sc1cc(C(C)(C)C)c(O)c(C(C)(C)C)c1	Not satisfied
C/C=C(/C)C(=O)O[C@@H]1[C@H](OC(C)=O)[C@@]2(CO)C(CC1(C)C)C1=CCC3[C@@]4(C)CC[C@H](O[C@@H]5O[C@H](C(=O)O)[C@@H](O[C@@H]6O[C@H](CO)[C@@H](O)[C@H](O)[C@H]6O)[C@H](O)[C@H]5O[C@@H]5O[C@H](CO)[C@@H](O)[C@H](O)[C@H]5O)[C@](C)(CO)C4CC[C@@]3(C)[C@]1(C)C[C@H]2O (stereo partly specified)	Not satisfied

Please find the next compound below.
Enquiry: For COC1=C[C@@H]2[C@@H]3Cc4ccc(OC)c(O)c4[C@]2(CCN3C)CC1=O , is the recorded normalized growth below the cut-off of 1?
Return: Satisfied

* * *

Test: chemical genetic growth profiling, strain panel (AID 1159580);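 further: tested at 20 µM; growth read once vehicle control cultures reached saturation at 30 °C; 1 = growth at the plate median or of vehicle wells; lower values mean less growth of the strain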
Conditions: S. cerevisiae deletion strains, growth OD, locus YKL160W, strain elf1, hits give low values
Out of some 5,500 compounds screened, about 2,000 (36%) were called active. About 18% were inconclusive and are not listed. The list shows a part of the results.
// values below are reported normalized growth
// return a plain number; no unit text

Answered cases to consult:
compound	normalized growth
CC(C)CC(N(C)C)C1(c2ccc(Cl)cc2)CCC1 (stereo not given)	1.02
COC(=O)Nc1nc2ccc(S(=O)c3ccccc3)cc2[nH]1 (stereo not given)	0.99

Enquiry: Need normalized growth of N=C(N)c1ccc(OCCCCCOc2ccc(C(=N)N)cc2)cc1 , thanks.
Return: 0.948

Enquiry: And for CC(C)=CCCC1(C)C=Cc2c(O)c3c(c(CC=C(C)C)c2O1)OC12C(=CCCC1C(C)(C)O[C@@]2(C/C=C(\C)C(=O)O)C(=O)O)C3=O (stereo not given in full) ?
Return: 0.896

Enquiry: And for COc1c(-c2coc3cc4c(cc3c2=O)CC(OC(C)=O)C(C)(C)O4)ccc2c1C=CC(C)(C)O2 (stereo not given) ?
Return: 1.04

Enquiry: And for CC(C)(C#N)O[C@@H]1O[C@H](CO)[C@@H](O)[C@H](O)[C@H]1O ?
Return: 1

Enquiry: And for COc1c(-c2coc3cc4c(cc3c2=O)CC(O)C(C)(C)O4)ccc2c1C=CC(C)(C)O2 (stereo not given) ?
Return: 0.992

Enquiry: And for C[C@@H]1CC[C@H]2[C@@H](C)C(=O)O[C@@H]3O[C@@]4(C)CC[C@@H]1[C@]32OO4 ?
Return: 0.874

Enquiry: And for C[C@@H]1CC[C@H]2[C@@H](C)C(O)O[C@@H]3O[C@@]4(C)CC[C@@H]1[C@]32OO4 (stereo not given in full) ?
Return: 0.336

Enquiry: And for COC(=O)Nc1nc2ccc(C(=O)c3ccccc3)cc2[nH]1 ?
Return: 0.894

* * *

Test: chemical genetic growth profiling, strain panel (AID 1159580);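 further: tested at 20 µM; growth read once vehicle control cultures reached saturation at 30 °C; 1 = growth at the plate median or of vehicle wells; lower values mean less growth of the strain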
Details: S. cerevisiae deletion strains, growth OD, locus YNL271C, strain bni1, hits give low values
In all, about 5,500 compounds went through this assay and about 2,000 (36%) were called active. Another 18% or so got no clear call; they are omitted. This is one part of the list.
Labelling field: enter true (1) if recorded normalized growth is less than 1. Enter false (0) if it equals or exceeds that cut-off.

molecule	answer-label
C#C[C@]1(OC(C)=O)CCC2C3CCC4=CC(=O)CC[C@@H]4C3CC[C@@]21C (stereo partly specified)	true (1)

Please find the next molecule below.
Enquiry: For CC(=O)O[C@H]1CC[C@@]2(C)C(CC[C@]3(C)C2CC=C2C4CC(C)(C)CC[C@]4(C)CC[C@]23C)C1(C)C (stereo partly specified) , is the recorded normalized growth below the cut-off of 1?
Return: false (0)

* * *

Test: chemical genetic growth profiling, strain panel (AID 1159580);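 further: tested at 20 µM; growth read once vehicle control cultures reached saturation at 30 °C; 1 = growth at the plate median or of vehicle wells; lower values mean less growth of the strain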
Details: S. cerevisiae deletion strains, growth OD, locus YBR136W, strain MEC1, hits give low values
In all, about 5,500 compounds went through this assay and about 2,000 (36%) were called active. Roughly 18% stayed inconclusive and do not appear here. Some of the results follow.
endpoint: normalized growth
// return a plain number; no unit text

>>> print(df.to_string())
                         chemical_structure           endpoint  result
0  Clc1cc(Cl)cc(-c2nc(SCc3ccc(Cl)cc3Cl)n[nH]2)c1  normalized growth   0.998
1          O=C(NCCc1ccncc1)c1ccc(Cl)c(Cl)c1  normalized growth   0.987
2  Fc1cccc(Cl)c1CSc1n[nH]c(-c2cc(C(F)(F)F)cc(C(F)(F)F)c2)n1  normalized growth   0.982

We next turn to a different molecule, shown below.
Enquiry: Need normalized growth of O=C(NCCNc1ncc(C(F)(F)F)cc1Cl)C(F)(F)Sc1ccccc1 , thanks.
Return: 0.973
